Data origin, for the record: patent US20240246968A1

- Test system: MIA PaCa-2 cells
- protocol-text: Growth inhibition activity on KRAS-G12C mutant cell line (MIA PaCa-2), CellTiter-Glo 3D
- Format: cell-based, human
- assay-context: Homo sapiens, MIA PaCa-2, 72 h, MIA PaCa-2, 3-day culture with compound
measure-name: IC50 (nM)

Cc1nc2cc(-c3cccn4c(C(=O)c5cc(F)c(NC(=O)/C=C/CNC6CCCCC6O)c(F)c5)ccc34)c(C(F)(F)F)cc2n1C (centres unmarked): 400

P. Cc1cc2c(nc(CC(N)=O)n2C)c(Cl)c1-c1cccn2c(C(=O)c3cc(F)c(NC(=O)/C=C/CNC(C)(C)C)c(F)c3)ccc12
Q. COc1cc2c(nc(C)n2C)c(F)c1-c1cccn2c(C(=O)c3cc(F)c(NC(=O)/C=C/CN[C@H]4CC[C@H](OC)CC4)c(F)c3)ccc12
R. CO[C@H]1CC[C@H](NC/C=C/C(=O)Nc2c(F)cc(C(=O)c3ccc4c(-c5cc6nc(C)n(C)c6cc5C(F)(F)F)cccn34)cc2F)CC1
S. CO[C@H]1CC[C@H](NC/C=C/C(=O)Nc2c(F)cc(C(=O)c3cc(CO)c4c(-c5c(C)cc6c(nc(C)n6C)c5Cl)cccn34)cc2F)CC1
Would you mind ranking these compounds by ascending IC50? Form field (ranking): labels in requested order. Q, R, S, P
(Q: 23 nM, R: 57 nM, S: 130 nM, P: 300 nM)

a. Cc1cc2c(nc(CC(F)(F)F)n2C)c(Cl)c1-c1cccn2c(C(=O)c3cc(F)c(NC(=O)/C=C/CNC(C)(C)C)c(F)c3)ccc12
b. C#Cc1cc2c(nc(C)n2C)c(Cl)c1-c1cccn2c(C(=O)c3cc(F)c(NC(=O)/C=C/CN[C@H]4CC[C@H](OC)CC4)c(F)c3)ccc12
c. Cc1nc2cc(-c3cccn4c(C(=O)c5cc(F)c(NC(=O)/C=C/CNC(C)(C)C)c(F)c5)ccc34)c(C(F)(F)F)cc2n1C
d. CO[C@H]1CC[C@H](NC/C=C/C(=O)Nc2c(F)cc(C(=O)c3ccc4c(-c5c(Br)cc6c(nc(C)n6C)c5Cl)cccn34)cc2F)CC1
e. COc1cc(-c2cncn2C)cc(Cl)c1-c1cccn2c(C(=O)c3cc(F)c(NC(=O)/C=C/CN[C@H]4CC[C@H](OC)CC4)c(F)c3)ccc12
rank_up(items): orders items by reported IC50 in ascending numerical order. List the labels according to the requested ordering. d, c, b, a, e
(d: 64 nM, c: 100 nM, b: 160 nM, a: 260 nM, e: 610 nM)

I. CO[C@H]1CC[C@H](NC/C=C/C(=O)Nc2c(F)cc(C(=O)c3c(C4CC4)nc4c(-c5cc6nc(C)n(C)c6cc5C(F)(F)F)cccn34)cc2F)CC1
II. CO[C@H]1CC[C@H](NC/C=C/C(=O)Nc2c(F)cc(C(=O)c3cc(C(=O)N(C)C)c4c(-c5c(C)cc6c(nc(C)n6C)c5Cl)cccn34)cc2F)CC1
Field: lower IC50 | Options: I / II Select an item and report its label. II
(II: 134 nM, I: 280 nM)

====

- System: MIA PaCa-2 cells
- protocol-text: Growth inhibition activity on KRAS-G12C mutant cell line (MIA PaCa-2), CellTiter-Glo 3D
- Format: cell-based, human
- assay-context: Homo sapiens, MIA PaCa-2, 72 h, MIA PaCa-2, 3-day culture with compound
measure-name: IC50 (µM)

a. COc1cc2c(cc1-c1cccn3c(C(=O)c4cc(F)c(NC(=O)/C=C/CN[C@H]5CC[C@H](OC)CC5)c(F)c4)ccc13)nc(C)n2C
b. Cc1nc2cc(-c3cccn4c(C(=O)c5cc(F)c(NC(=O)/C=C/CN[C@H]6CC[C@H](O)CC6)c(F)c5)ccc34)c(C(F)(F)F)cc2n1C
c. C=Cc1cc(C(=O)c2cc(F)c(NC(=O)/C=C/CN[C@H]3CC[C@H](OC)CC3)c(F)c2)n2cccc(-c3c(C)cc4c(nc(C)n4C)c3Cl)c12
List by increasing IC50. Please respond by ranking the labels in the order requested. a, b, c

====

- assay-target: interaction between recombinant K-Ras4B G12C mutant protein and cRAF RAS-binding domain (cRAF-RBD) (Homo sapiens, UniProt P01116, G12C)
- Sequence (P01116 with tags, fused parts or gaps isoform P01116-2 G12C): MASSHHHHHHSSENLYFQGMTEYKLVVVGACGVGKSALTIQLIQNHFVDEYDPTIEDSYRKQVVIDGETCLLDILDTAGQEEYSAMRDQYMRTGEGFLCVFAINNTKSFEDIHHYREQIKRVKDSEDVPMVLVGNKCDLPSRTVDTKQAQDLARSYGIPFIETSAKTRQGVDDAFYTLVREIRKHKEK
- protocol-text: Inhibitory activity on interaction between KRAS G12C and cRAF (Alpha technology)
- assay-context: GMPPNP-bound KRAS G12C incubated with compound at 25° C. for 1 hour, then cRAF-RBD; Alpha signal
measure-name: IC50 (nM)

COc1cc2c(cc1-c1cccn3c(C(=O)c4cc(F)c(NC(=O)/C=C/CN[C@H]5CC[C@H](OC)CC5)c(F)c4)ccc13)nc(C)n2C [Example 4]: 74

P. CO[C@H]1CC[C@H](NC/C=C/C(=O)Nc2c(F)cc(C(=O)c3cc(I)c4c(-c5c(C)cc6c(nc(C)n6C)c5Cl)cccn34)cc2F)CC1 [Example 75]
Q. Cc1nc2cc(-c3cccn4c(C(=O)c5cc(F)c(NC(=O)/C=C/CNC6CCCCC6O)c(F)c5)ccc34)c(C(F)(F)F)cc2n1C (stereo not drawn) [Example 63]
Parameter metric = IC50. Return the lower-valued option from P and Q . The response must carry the label of the picked entry. P
(P: 37 nM, Q: 71 nM)

====

- System: MIA PaCa-2 cells
- protocol-text: Growth inhibition activity on KRAS-G12C mutant cell line (MIA PaCa-2), CellTiter-Glo 3D
- Assay type: cell-based, human
- assay-context: Homo sapiens, MIA PaCa-2, 72 h, MIA PaCa-2, 3-day culture with compound
pIC50: −log10 of the molar value.
measure-name: pIC50

Cc1cc2c(nc([C@@H](C)O)n2C)c(Cl)c1-c1cccn2c(C(=O)c3cc(F)c(NC(=O)/C=C/CNC(C)(C)C)c(F)c3)ccc12 [Example 98]: 7.38

A. COc1cc2c(ncn2C)c(Cl)c1-c1cccn2c(C(=O)c3cc(F)c(NC(=O)/C=C/CN[C@H]4CC[C@H](OC)CC4)c(F)c3)ccc12 (single isomer, unassigned) [Example 41-1]
B. CO[C@H]1CC[C@H](NC/C=C/C(=O)Nc2c(F)cc(C(=O)c3cnc4c(-c5cc6nc7n(c6cc5C(F)(F)F)CCC7)cccn34)cc2F)CC1 [Example 6]
For the pair A and B , which member has the lower pIC50 number? Lab log: write the label of the selected item as the result. B
(B: 7.03, A: 7.49)

====

- Test system: MIA PaCa-2 cells
- protocol-text: Growth inhibition activity on KRAS-G12C mutant cell line (MIA PaCa-2), CellTiter-Glo 3D
- Format: cell-based, human
- assay-context: MIA PaCa-2, 3-day culture with compound
measure-name: IC50 (nM)

CCc1nc2c(-c3c(C(F)(F)F)cc4c(nc(C)n4C)c3OC)cccn2c1C(=O)c1cc(F)c(NC(=O)/C=C/CN[C@H]2CC[C@H](OC)CC2)c(F)c1 (single isomer, unassigned) [Example 102-1]: 20.1
COc1cc2c(ncn2C)c(Cl)c1-c1cccn2c(C(=O)c3cc(F)c(NC(=O)/C=C/CNC(C)(C)C)c(F)c3)ccc12 (single isomer, unassigned): 42

a. COc1c(-c2cccn3c(C(=O)c4cc(F)c(NC(=O)/C=C/CNC5CCOCC5)c(F)c4)ccc23)c(C(F)(F)F)cc2c1nc(C)n2C (single isomer, unassigned) [Example 61-1]
b. CO[C@H]1CC[C@H](NC/C=C/C(=O)Nc2c(F)cc(C(=O)c3ccc4c(-c5c(C(F)(F)F)cc6c(nc(C)n6C)c5Cl)cccn34)cc2F)CC1 (single isomer, unassigned) [Example 32-2]
c. Cc1nc2c(Cl)c(-c3cccn4c(C(=O)c5cc(F)c(NC(=O)/C=C/CNC(C)(C)C)c(F)c5)ccc34)c(C(F)(F)F)cc2n1C (single isomer, unassigned) [Example 56-2]
Write the entries in order, lowest recorded IC50 first. Output the labels ranked as instructed. c, b, a
(c: 29 nM, b: 990 nM, a: 2300 nM)

====

- Tested on: MIA PaCa-2 cells
- protocol-text: Growth inhibition activity on KRAS-G12C mutant cell line (MIA PaCa-2), CellTiter-Glo 3D
- Assay type: cell-based, human
- assay-context: MIA PaCa-2, 3-day culture with compound
- Protocol: MIA PaCa-2 cells (given by Sumitomo Dainippon Pharma Co., Ltd.), which are a KRAS-G12C mutant human pancreas cancer cell line, were suspended in a 10% fetal bovine serum-containing RPMI1640 medium (manufactured by Fujifilm Wako Pure Chemical Corporation.). […] The cell count after 3-day culture in the presence of the test compound was measured using CellTiter-Glo 3D Reagent (manufactured by Promega Corporation). […] 30 minutes after mixing, luminescence was measured by a plate reader. […]
measure-name: IC50 (nM)

COc1c(-c2cccn3c(C(=O)c4cc(F)c(NC(=O)/C=C/CN[C@H]5CC[C@H](OC)CC5)c(F)c4)ccc23)c(C(F)(F)F)cc2c1nc(C)n2C (single isomer, unassigned) [Example 60-2]: 15
CO[C@H]1CC[C@H](NC/C=C/C(=O)Nc2c(F)cc(C(=O)c3ccc4c(-c5c(C(F)(F)F)cc6c(ncn6C)c5Cl)cccn34)cc2F)CC1 (single isomer, unassigned) [Example 28-1]: 51
COc1c(-c2cccn3c(C(=O)c4cc(F)c(NC(=O)/C=C/CN[C@H]5CC[C@H](OC)CC5)c(F)c4)ccc23)c(C(F)(F)F)cc2c1nc(C)n2C (single isomer, unassigned) [Example 60-1]: 1600
CO[C@H]1CC[C@H](NC/C=C/C(=O)Nc2c(F)cc(C(=O)c3ccc4c(-c5c(C)cc6c(nc(C)n6C)c5Cl)cccn34)cc2F)CC1 (single isomer, unassigned) [Example 19-1]: 47
COc1cc(N2CCCC2=O)cc(Cl)c1-c1cccn2c(C(=O)c3cc(F)c(NC(=O)/C=C/CN[C@H]4CC[C@H](OC)CC4)c(F)c3)ccc12 (single isomer, unassigned) [Example 30-2]: 120

A. CO[C@H](C)c1nc2c(Cl)c(-c3cccn4c(C(=O)c5cc(F)c(NC(=O)/C=C/CN[C@H]6CC[C@H](OC)CC6)c(F)c5)ccc34)c(C)cc2n1C (single isomer, unassigned) [Example 48]
B. CO[C@H]1CC[C@H](NC/C=C/C(=O)Nc2c(F)cc(C(=O)c3ccc4c(-c5c(C(C)C)cc6c(nc(C)n6C)c5Cl)cccn34)cc2F)CC1 (single isomer, unassigned) [Example 71-2]
C. COc1c(-c2cccn3c(C(=O)c4cc(F)c(NC(=O)/C=C/CN[C@H]5CC[C@H](OC)CC5)c(F)c4)cnc23)c(C(F)(F)F)cc2c1nc(C)n2C (single isomer, unassigned) [Example 83-2]
Sort the 3 compounds by IC50; largest first, smallest last. Reply: labels, ordered per the request. C, B, A

a. CO[C@H](C)c1nc2c(Cl)c(-c3cccn4c(C(=O)c5cc(F)c(NC(=O)/C=C/CNC(C)(C)C)c(F)c5)ccc34)c(C)cc2n1C (single isomer, unassigned) [Example 50]
b. COc1cc2c(ncn2C)c(Cl)c1-c1cccn2c(C(=O)c3cc(F)c(NC(=O)/C=C/CN[C@H]4CC[C@H](OC)CC4)c(F)c3)ccc12 (single isomer, unassigned)
c. COc1c(-c2cccn3c(C(=O)c4cc(F)c(NC(=O)/C=C/CNC5(C)CC5)c(F)c4)c(C)nc23)c(C(F)(F)F)cc2c1nc(C)n2C (single isomer, unassigned) [Example 109-2]
d. CO[C@H]1CC[C@H](NC/C=C/C(=O)Nc2c(F)cc(C(=O)c3ccc4c(-c5c(C(F)(F)F)cc6c(nc(C)n6C)c5Cl)cccn34)cc2F)CC1 (single isomer, unassigned) [Example 32-1]
e. Cc1cc2c(ncn2C)c(Cl)c1-c1cccn2c(C(=O)c3cc(F)c(NC(=O)/C=C/CNC(C)(C)C)c(F)c3)ccc12 (single isomer, unassigned) [Example 13-1]
Hey, can you sort those compounds up there by IC50, smallest first? Sort the labels as requested; that list is your answer. d, e, b, a, c
(d: 14 nM, e: 32 nM, b: 50 nM, a: 220 nM, c: 784 nM)
